Target under test: T1, biotinylated hTfR1 (Acro Bio p/n TFR-H82E5) (human, UniProt P02786 89-760, biotinylated; site not stated)
T1 construct: Bought reagent of the BLI assay
T1 sequence (P02786 89-760 limits assumed): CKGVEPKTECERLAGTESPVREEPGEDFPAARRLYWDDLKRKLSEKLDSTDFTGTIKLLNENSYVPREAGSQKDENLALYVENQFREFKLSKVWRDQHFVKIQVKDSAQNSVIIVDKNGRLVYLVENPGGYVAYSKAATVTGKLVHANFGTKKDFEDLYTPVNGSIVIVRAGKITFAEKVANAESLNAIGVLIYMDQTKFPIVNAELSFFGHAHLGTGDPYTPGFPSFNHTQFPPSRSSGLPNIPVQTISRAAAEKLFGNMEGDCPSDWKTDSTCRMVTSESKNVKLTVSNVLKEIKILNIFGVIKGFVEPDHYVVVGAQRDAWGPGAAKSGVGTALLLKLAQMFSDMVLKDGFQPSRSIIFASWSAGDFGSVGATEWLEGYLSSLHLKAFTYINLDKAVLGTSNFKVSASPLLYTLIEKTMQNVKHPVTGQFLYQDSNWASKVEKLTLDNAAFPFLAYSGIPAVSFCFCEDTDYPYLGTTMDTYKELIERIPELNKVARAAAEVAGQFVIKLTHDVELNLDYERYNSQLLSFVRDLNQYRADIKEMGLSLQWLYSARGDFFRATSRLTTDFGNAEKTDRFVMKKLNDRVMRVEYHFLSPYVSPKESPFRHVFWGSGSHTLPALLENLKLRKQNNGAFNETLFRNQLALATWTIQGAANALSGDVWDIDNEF
Experiment notes: BLI, Octet RH16, biotinylated TfR1 on streptavidin sensor; Fab-siRNA conjugate
Assay readout: pKd
Scale for pKd: -log10 of concentration given in mol/L; no unit attached.

[
  {
    "Binder": "Fab0069-siRNA conjugate (Fab, V domains shown, siRNA-linker on a reduced cysteine; chain and residue not stated, also called Fab0069 (BLI conjugate columns)) VH: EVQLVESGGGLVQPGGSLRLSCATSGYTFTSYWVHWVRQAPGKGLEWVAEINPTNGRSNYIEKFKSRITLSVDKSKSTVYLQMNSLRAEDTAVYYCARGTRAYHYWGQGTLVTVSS VL: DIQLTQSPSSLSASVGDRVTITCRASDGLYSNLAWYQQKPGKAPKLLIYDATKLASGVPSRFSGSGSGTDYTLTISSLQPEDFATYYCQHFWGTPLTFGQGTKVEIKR",
    "Experimental result": 8.26
  },
  {
    "Binder": "Fab0062-siRNA conjugate (Fab, V domains shown, siRNA-linker on a reduced cysteine; chain and residue not stated, also called Fab0062 (BLI conjugate columns)) VH: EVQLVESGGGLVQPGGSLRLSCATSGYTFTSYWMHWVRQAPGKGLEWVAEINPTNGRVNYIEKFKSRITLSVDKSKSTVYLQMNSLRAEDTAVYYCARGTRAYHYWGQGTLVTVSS VL: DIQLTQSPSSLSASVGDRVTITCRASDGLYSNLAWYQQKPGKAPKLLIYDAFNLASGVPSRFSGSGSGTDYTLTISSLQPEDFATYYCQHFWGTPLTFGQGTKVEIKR",
    "Experimental result": 8.35
  }
]

// moving on: another record for pKd
Short answer for Fab0073-siRNA conjugate (Fab, V domains shown, siRNA-linker on a reduced cysteine; chain and residue not stated, also called Fab0073 (BLI conjugate columns)) VH: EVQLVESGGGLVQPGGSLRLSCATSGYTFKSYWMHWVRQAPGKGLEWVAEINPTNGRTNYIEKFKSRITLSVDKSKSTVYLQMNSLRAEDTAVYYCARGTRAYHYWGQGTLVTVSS VL: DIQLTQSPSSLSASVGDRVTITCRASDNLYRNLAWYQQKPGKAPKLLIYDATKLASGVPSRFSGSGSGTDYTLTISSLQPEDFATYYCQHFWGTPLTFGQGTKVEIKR : pKd was 8.68
